test system: MM cell line; assay: Multiple Myeloma Assay; type: cell-based; conditions: dose 0.004 μM; 72 hrs in culture
parameter: viability at 0.004 µM (%)
Give just the numeric value; % need not be written.

>>> print(df.to_string())
                                        smi    systemname  observed
0     Cc1nc2ncccn2c1-c1csc(Nc2ccc(Cl)cc2)n1  MM cell line      89.6
1  COCCOc1cc(Br)c(Nc2nc(-c3cnc4ccc(Cl)cn34)cs2)c(Br)c1  MM cell line      91.2
2  COc1cc(Br)c(Nc2nc(-c3c(C)nc4ncccn34)cs2)c(Br)c1  MM cell line      90.1

Please turn your attention to the following entry.
So, COc1ccc(Nc2nc(-c3c(C)nc4ncccn34)cs2)cc1 ? Its viability at 0.004 µM was 84.5
